# Experiment Notes: qHTS assay to identify small molecule agonists of the hypoxia (HIF-1) signaling pathway - cell viability counter screen (AID 1224844); also: nearly all actives have a fitted effect of over 50% in size
# Condition Notes: HRE-bla ME-180 viability, CellTiter-Glo luminescence, 17 h; series mostly up to 76.8 µM
Inconclusive results are not listed. Calls of active or inactive are those of the source. Calls follow the shape of the full dose curve.
Use one of these outcomes when replying: active, inactive

Molecule	Category Label
COc1ccc(N)cc1N	inactive

Lab log entry: CCSC(C)CC1CC(=O)C(/C(CC)=N/OC/C=C/Cl)=C(O)C1 (stereo not drawn) — outcome as called in the assay?
inactive

Lab log entry: ClC1=C(Cl)[C@]2(Cl)[C@H]3[C@H]([C@H]4C=C[C@H]3C4)[C@@]1(Cl)C2(Cl)Cl — outcome as called in the assay?
inactive

Lab log entry: CC(C)(c1ccc(O)c(-c2ccccc2)c1)c1ccc(O)c(-c2ccccc2)c1 — outcome as called in the assay?
active

Lab log entry: Nc1ccc(Cl)cc1C(=O)c1ccccc1 — outcome as called in the assay?
inactive

Lab log entry: Cc1cc(C)c(C2=C(OC(=O)CC(C)(C)C)C3(CCCC3)OC2=O)c(C)c1 — outcome as called in the assay?
inactive

Lab log entry: Nc1c(Oc2ccccc2)cc(O)c2c1C(=O)c1ccccc1C2=O — outcome as called in the assay?
inactive

Lab log entry: COC(=O)N(C(=O)N1CO[C@@]2(C(=O)OC)Cc3cc(Cl)ccc3C2=N1)c1ccc(OC(F)(F)F)cc1 — outcome as called in the assay?
inactive

Lab log entry: CCCN(CCC)c1c([N+](=O)[O-])cc(S(N)(=O)=O)cc1[N+](=O)[O-] — outcome as called in the assay?
active
